Each entry below carries its reported IC50.
# Target under test: T1, B7-H3 (human)
# T1 chain: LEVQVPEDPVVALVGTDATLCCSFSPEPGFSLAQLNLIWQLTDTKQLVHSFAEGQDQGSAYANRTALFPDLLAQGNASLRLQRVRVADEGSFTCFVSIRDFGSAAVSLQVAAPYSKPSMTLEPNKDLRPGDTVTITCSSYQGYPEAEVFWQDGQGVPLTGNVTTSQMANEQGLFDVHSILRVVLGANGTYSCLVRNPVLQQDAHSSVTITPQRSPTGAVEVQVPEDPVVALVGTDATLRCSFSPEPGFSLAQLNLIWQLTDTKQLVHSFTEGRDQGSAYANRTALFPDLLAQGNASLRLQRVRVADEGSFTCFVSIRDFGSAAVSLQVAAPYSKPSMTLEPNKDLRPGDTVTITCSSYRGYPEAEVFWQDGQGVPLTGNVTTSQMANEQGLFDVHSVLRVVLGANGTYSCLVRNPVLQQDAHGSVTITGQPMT
# Protocol text: competition ELISA (phage)
I only need the number, in nM, no unit after it.

Sample answers from the record:
Binder	IC50 / nM
1-5 (antibody, V domains shown) VH: QVQLQQSGAEVKKPGASVKVSCKASGYTFTNYDINWVRQAPGQGLEWIGWIFPGDGSTQYNEKFKGRATLTTDTSTSTAYMELSSLRSEDTAVYFCARQTTGTWFAYWGQGTLVTVSS VL: DIVLTQSPATLSLSPGERATLSCRASQSISHYLHWYQQKPGQAPRLLIKYASQSLSGIPARFSGSGSGSDFTLTISSLEPEDFAVYYCQNGHSFPLTFGGGTKVEIKR	5.1
1-4 (antibody, V domains shown) VH: QVQLQQSGAEVKKPGASVKVSCKASGYTFTNYDINWVRQAPGQGLEWIGWIFPGDGSTQYNPKFKGRATLTTDTSTSTAYMELSSLRSEDTAVYFCARQTTGTWFAYWGQGTLVTVSS VL: DIVLTQSPATLSLSPGERATLSCRASQSISTYLHWYQQKPGQAPRLLIKEASQSISGIPARFSGSGSGSDFTLTISSLEPEDFAVYYCQNGHSFPLTFGGGTKVEIKR	5.6
1-7 (antibody, V domains shown) VH: QVQLQQSGAEVKKPGASVKVSCKASGYTYTNYDINWVRQAPGQGLEWIGWIFPGDGSTQYNEKFKGRATLTTDTSTSTAYMELSSLRSEDTAVYFCARQTTGTWFAYWGQGTLVTVSS VL: DIVLTQSPATLSLSPGERATLSCRASQSISPYLHWYQQKPGQAPRLLIKHASQSISGIPARFSGSGSGSDFTLTISSLEPEDFAVYYCQNGHSFPLTFGGGTKVEIKR	5.6

Measured IC50 of 1-2 (antibody, V domains shown) VH: QVQLQQSGAEVKKPGASVKVSCKASGYTFTNYDINWVRQAPGQGLEWIGWIFPGDGSTQYNETFKGRATLTTDTSTSTAYMELSSLRSEDTAVYFCARQTTGTWFAYWGQGTLVTVSS VL: DIVLTQSPATLSLSPGERATLSCRASQSISKYLHWYQQKPGQAPRLLIKYANQSIRGIPARFSGSGSGSDFTLTISSLEPEDFAVYYCQNGHSFPLTFGGGTKVEIKR : 10

Measured IC50 of 1-1 (antibody, V domains shown) VH: QVQLQQSGAEVKKPGASVKVSCKASGYTFTNYDINWVRQAPGQGLEWIGWIFPGDGSTQYNGKFKGRATLTTDTSTSTAYMELSSLRSEDTAVYFCARQTTGTWFAYWGQGTLVTVSS VL: DIVLTQSPATLSLSPGERATLSCRASQSISPYLHWYQQKPGQAPRLLIKYASQSWSGIPARFSGSGSGSDFTLTISSLEPEDFAVYYCQNGHSFPLTFGGGTKVEIKR : 8.8
